experiment: NCI Yeast Anticancer Drug Screen. Data for the mec2-1 strain (AID 157); conditions: S. cerevisiae mec2-1 strain, at 5.0 µM (retest, dose inferred, filed as 0.5), active compounds read high
The panel holds about 79,000 compounds, 15% with a hit somewhere; the sample as a whole holds those more often.

# Compound, growth inhibition [%]
data = [
    ("CCC(C)(C)NCCCCCNc1cc(OC)cc2cccnc12", -5),
    ("Nc1cc(S(=O)(=O)O)cc2cc(S(=O)(=O)O)c(N=Nc3ccccc3)c(O)c12", -2),
    ("CC(C)c1cc(C(=O)[O-])c(O)c(C(C)C)c1.CC(C)c1cc(C(=O)[O-])c(O)c(C(C)C)c1.CC(C)c1cc(C(=O)[O-])c(O)c(C(C)C)c1.CC(C)c1cc(C(=O)[O-])c(O)c(C(C)C)c1.CC(C)c1cc(C(=O)[O-])c(O)c(C(C)C)c1.CC(C)c1cc(C(=O)[O-])c(O)c(C(C)C)c1.[Cu+2].[Mn+2].[Mn+2]", 38),
    ("[Cl-].[La+3].[O-]/N=C(\\c1ccccc1)c1ccccn1.[O-]/N=C(\\c1ccccc1)c1ccccn1.[O-]/N=C(\\c1ccccc1)c1ccccn1", 25),
    ("O=[N+]([O-])c1cnc(F)c(Br)c1", 99),
    ("Cc1cccc(NC(=O)C(=O)C(C2OC(=O)c3ccccc32)[N+](=O)[O-])c1C (stereo not drawn)", -24),
    ("O=C(O)c1ccc(C(O)(c2ccccc2)c2ccccc2)cc1", 11),
    ("NNc1ccccc1F", -32),
]

###

experiment: NCI Yeast Anticancer Drug Screen. Data for the sgs1 mgt1 strain (AID 161);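 further: 0% = growth of cultures given vehicle only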; conditions: S. cerevisiae sgs1 mgt1 strain, at 50.0 µM (retest, dose inferred, filed as 5.0), active compounds read high
This is part of a sample that, as a whole, favours compounds with a hit. Of some 79,000 tested, about 15% had one in any assay.
Metric name: growth inhibition (%)

# Compound, Reported measurement
measured = [
    ("Clc1ccc2nc(CCSCCc3nc4ccc(Cl)cc4[nH]3)[nH]c2c1", 97),
    ("O=C(O)c1ccc2cc3ccccc3cc2c1", 50),
    ("COc1ccc(C(=O)C(CN2CCOCC2)CN2CCOCC2)cc1", -6),
    ("CSC1NNC2(C(=O)N1)c1ccccc1-c1ccccc12 (configuration not stated)", 96),
    ("NC(=O)C#CC#CC#CCO", 78),
    ("NNC(=O)C(=O)N/N=C(/CCC(=O)NCCc1ccccc1)CC(=O)c1ccccc1", 4),
    ("O=C(O)c1nc2cc(C(F)(F)F)ccc2nc1Nc1ccc(Cl)c(Cl)c1", 52),
    ("O=C1C(=O)c2cc(Br)cc([N+](=O)[O-])c2-c2ccc(Br)cc21", 93),
    ("CS/C(C#N)=C(\\C#N)SC", 23),
    ("CCCCCCCCC(N)CCCCCCCC", 99),
    ("O=C1C(=O)N(c2ccccc2)N=C1N=Nc1ccccc1", 63),
    ("COc1ccc(C(C)c2cc3c(cc2O)OCO3)cc1 (configuration not stated)", 56),
]

###

Assay: NCI Yeast Anticancer Drug Screen. Data for the bub3 strain (AID 167)
Conditions: S. cerevisiae bub3 mutant strain, at 50.0 µM (retest, dose inferred, filed as 5.0), active compounds read high
Experimental: Growth inhibition of yeast strains with defined genetic alterations is measured as a screen for potential anti-cancer activity. Selected strains with alterations in DNA damage repair or cell cycle control were exposed to compounds and growth inhibition was measured relative to vehicle treated controls. The strain used in this assay is bub3
This is part of a sample that, as a whole, favours compounds with a hit. Of some 79,000 tested, about 15% had one in any assay.
Metric name: growth inhibition (%)

# Compound, U, Reported measurement
data = [
    ("O=C(O)c1nnsc1-c1ccc(-c2snnc2C(=O)O)cc1", "%", 6),
    ("O=C(N/C(=C\\c1ccc(Cl)cc1)c1nc2ccccc2[nH]1)c1ccccc1", "%", 97),
    ("O=[N+]([O-])/C(C(Cl)=C(Cl)Cl)=C(/Sc1ccccc1)N1CCCCC1", "%", 96),
    ("C=C1CC2(C[C@@H](c3ccccc3)O[C@@H](c3ccccc3)C2)OC1=O (stereo partly specified)", "%", 98),
    ("Clc1ccc(CN2COc3c(cc(Cl)c4cccnc34)C2)cc1", "%", 55),
    ("Oc1ccc(N=Nc2ccccc2)c(O)c1.Oc1ccc(N=Nc2ccccc2)c(O)c1.[Cu]", "%", 95),
    ("Clc1ccc2nc(CCSCCc3nc4ccc(Cl)cc4[nH]3)[nH]c2c1", "%", 98),
    ("Oc1ccc2c(ccc3ccccc32)c1", "%", 88),
    ("CCOC(=O)C(=C=C=C(c1ccccc1)c1ccccc1)C(=O)OCC", "%", 6),
    ("Cc1c(O)c2c(c(O)c1Br)C(=O)C=CC2=O", "%", 98),
    ("Cn1c(=O)[nH]c2nnc(-c3ccccc3)nc2c1=O", "%", 93),
    ("O=[N+]([O-])C1CCC(C2=CSC3CCCCC3N2)CC1 (stereo unspecified)", "%", 52),
    ("O=C(c1ccc(Cl)cc1)c1ccc([N+](=O)[O-])cc1", "%", 31),
    ("N#Cc1ccc2nc3ccc(N)cc3nc2c1", "%", 82),
    ("CCOC(=O)C(C#N)NC(C)=O (stereo unspecified)", "%", -5),
    ("CN(C)CCNc1ccc([N+](=O)[O-])c2nc3ccccc3c(N)c12", "%", 12),
    ("COC1OC2COC(c3ccccc3)OC2C(NC(=S)SCc2ccccc2)C1O (stereo unspecified)", "%", 99),
    ("Fc1ccc2[nH]ccc2c1", "%", 62),
    ("O=C1C=CC(=O)N1c1ccc(Cl)cc1Br", "%", 99),
    ("N/C(=N\\OC(=O)Nc1ccccc1)c1ccccc1", "%", 24),
    ("COC(=O)CSc1n[nH]c(-c2ccc(O)c([N+](=O)[O-])c2)n1", "%", 51),
    ("Cc1c(C(=O)N(CCO)CCO)[n+](=O)c2ccccc2n1[O-]", "%", 26),
    ("COc1ccc(C2c3cn[nH]c3CC3CCCCC32)cc1 (stereo unspecified)", "%", 99),
    ("NC(=S)NNCCC(=O)Nc1ccccc1C(F)(F)F", "%", 1),
    ("Clc1ccccc1/C=C/c1nccc2ccccc12", "%", 99),
    ("CC(C)c1ccc2c(c1)CC[C@@H]1[C@](C)(CO)CCC[C@]21C", "%", 95),
    ("CCN1C(Cl)=NS(=O)(=O)c2ccccc21", "%", 53),
    ("O=C(C1=Cc2ccccc2OC1)N1CCN(c2cccc(Cl)c2)CC1", "%", 97),
    ("COc1cc2c(cc1OC)-c1nc(Nc3ccccc3)sc1CC2", "%", 92),
    ("Oc1ccc(/C=N/NC(=S)NC2CC3CC2C2C=CCC32)c(O)c1 (stereo unspecified)", "%", 52),
    ("Nc1nc(-c2ccc(Cl)cc2)cs1", "%", 90),
    ("O=C(O)C(SC1=NNC2(C(=O)N1)c1ccccc1-c1ccccc12)SC1=NNC2(C(=O)N1)c1ccccc1-c1ccccc12", "%", 93),
    ("O=C(CCc1c[nH]c2ccccc12)c1ccccc1O", "%", 14),
    ("N#C/C(=C1/C(=O)c2ccccc2-c2ccccc21)c1ccccc1", "%", 98),
    ("OCC1OC(NC(=S)NCSCCC(F)(F)C(F)(F)C(F)(F)C(F)(F)C(F)(F)C(F)(F)F)C(O)C(O)C1O (stereo unspecified)", "%", -8),
    ("Nc1ccccc1Sc1ccc(F)cc1[N+](=O)[O-]", "%", 85),
    ("C[n+]1c(/C=C/c2cccc([N+](=O)[O-])c2)sc2ccccc21", "%", 97),
    ("C/C(=N\\NC(=S)N1CCCC1)c1cnccn1", "%", 97),
    ("c1ccc(NN=C(c2ccccc2)c2ccccc2)cc1", "%", 83),
    ("N#Cc1ccc(Cl)cc1[N+](=O)[O-]", "%", 97),
    ("FC(F)(F)c1[nH]nc(-c2ccc(Cl)cc2)c1N=NN1CCOCC1", "%", 98),
    ("CCCCCCCCCCCCCCNCCC(=O)O", "%", 99),
    ("Cc1cc(Oc2nc(Cl)nc(C(Cl)(Cl)Cl)c2Cl)cc(C)c1N(C)C (tested in a mixture with another compound)", "%", 30),
    ("O=C(CCC(NC(=O)OCc1ccccc1)C(=O)OCc1ccccc1)NC(CSCc1ccccc1)C(=O)NCC(=O)Oc1c(Cl)c(Cl)c(Cl)c(Cl)c1Cl (stereo unspecified)", "%", 59),
    ("CC(=O)CC1(O)C(=O)Nc2ccc(Br)cc21 (stereo unspecified)", "%", 2),
    ("C/C(=N\\NC(=S)NC(C)(C)C)c1ccccn1", "%", 99),
]

src = PubChem BioAssay (NCI)
